Tested on: H1975 (lung adenocarcinoma, DM, L828R/T790M)
Assay: Antiproliferative activity on H1975 cells (Alamar Blue)
Type: cell-based
Settings: Homo sapiens, NCI-H1975; H1975 cells, average values obtained in several tests, Table 16; read-out: H1975 (DM) IC50
Provide the reported pIC50 of each item.
Hey, just a heads up that pIC50 is the negative log base 10 of the concentration in molar.

Consider C=CC(=O)Nc1cc(Nc2cc(C(=O)c3ccc(N4CCCC4)cc3)ccn2)c(OC)cc1N(C)CCN(C)C . Its measured pIC50 is 7.53

Consider C=CC(=O)Nc1cc(Nc2nccc(C(=O)c3ccc(OC4CC4)cc3)n2)c(OC)cc1N(C)CCN(C)C . Its measured pIC50 is 7.53

Consider C=CC(=O)Nc1cc(Nc2nccc(C(=O)c3ccc(Br)cc3)n2)c(OC)cc1N(C)CCN(C)C . Its measured pIC50 is 7.51

---

Target: DM EGFR (DoubleMutantEGFR, L828R/T790M) (Homo sapiens, UniProt P00533, L858R/T790M)
Test: Inhibition of DM EGFR kinase activity (ADP-Glo)
Settings: inhibition of kinase activity, EGFR DM (L828R/T790M)
Provide the reported log10 IC50 of each item.
Hello, just confirming the data are log10 of IC50 with units of nM.

Consider C=CC(=O)Nc1cc(Nc2nccc(C(=O)c3ccc(OC)cc3OC)n2)c(OC)cc1N(C)CCN(C)C . Its measured log10 IC50 is 0.41

Consider C=CC(=O)Nc1cc(Nc2nccc(C(=O)c3ccc(OC)cc3)n2)c(OC)cc1N(C)CCN(C)C . Its measured log10 IC50 is 0.80

Consider C=CC(=O)Nc1cc(Nc2nccc(C(=O)c3ccc(N4CCCCC4)cc3)n2)c(OC)cc1N(C)CCN(C)C . Its measured log10 IC50 is -0.12

Consider C=CC(=O)Nc1cc(Nc2cc(C(=O)c3ccc(OC)cc3OC)ccn2)c(OC)cc1N(C)CCN(C)C . Its measured log10 IC50 is 0.44

Consider C=CC(=O)Nc1cc(Nc2nccc(C(=O)c3ccc(OC)cc3OCCC)n2)c(OC)cc1N(C)CCN(C)C . Its measured log10 IC50 is 1.05

Consider C=CC(=O)Nc1cc(Nc2nccc(C(=O)c3cccc(F)c3)n2)c(OC)cc1N(C)CCN(C)C . Its measured log10 IC50 is 0.81

---

Target: DM EGFR (DoubleMutantEGFR, L828R/T790M) (Homo sapiens, UniProt P00533, L858R/T790M)
Construct: purchased SignalChem
Test: Inhibition of DM EGFR kinase activity (ADP-Glo)
Type: biochemical
Details: selectivity index, kinase EGFR WT vs EGFR DM
readoutType: SI, IC50(WT)/IC50(DM)
// response body must contain only the number

Consider C=CC(=O)Nc1cc(Nc2nccc(C(=O)c3ccc(OC4CCCCC4)cc3)n2)c(OC)cc1N(C)CCN(C)C . Its measured SI, IC50(WT)/IC50(DM) is 9.27

Consider C=CC(=O)Nc1cc(Nc2nccc(C(=O)c3ccc(NCCO)cc3)n2)c(OC)cc1N(C)CCN(C)C.O=CO . Its measured SI, IC50(WT)/IC50(DM) is 19.68

Consider C=CC(=O)Nc1cc(Nc2cc(C(=O)c3ccc(N4CC(OC)C4)cc3)ccn2)c(OC)cc1N(C)CCN(C)C (racemic) . Its measured SI, IC50(WT)/IC50(DM) is 25.06
